- System: Setaria faberi (SETFA)
- assaySummary: Herbicidal glasshouse test, POST application
- Format: in vivo
- measurementContext: 130 g/ha; evaluated after 14 days; 100=total damage to plant, 0=no damage to plant
Criterion: damage to plant, SETFA, POST Application strictly less than 90. Met: yes (1). Not met: no (0).

{"substanceSmiles": "CN(C)S(=O)(=O)c1c(OC(F)(F)F)ccc(C(=O)Nc2nnnn2C)c1Cl", "discreteLabel": "no (0)"}
{"substanceSmiles": "CNS(=O)(=O)c1c(OC(F)(F)F)ccc(C(=O)Nc2nnnn2C)c1Cl", "discreteLabel": "yes (1)"}
{"substanceSmiles": "CCNS(=O)(=O)c1c(OC(F)(F)F)ccc(C(=O)Nc2nnnn2C)c1Cl", "discreteLabel": "yes (1)"}
{"substanceSmiles": "Cn1nnnc1NC(=O)c1ccc(OC(F)(F)F)c(S(=O)(=O)NCC2CC2)c1Cl", "discreteLabel": "yes (1)"}
